- experimental system: MAST2, Q6P0Q8
- Sequence (Q6P0Q8 1099-1202): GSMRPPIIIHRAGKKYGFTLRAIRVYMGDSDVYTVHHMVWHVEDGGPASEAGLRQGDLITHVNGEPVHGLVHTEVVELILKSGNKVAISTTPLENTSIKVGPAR
- method summary: holdup assay
- Set-up: key: below the threshold = too weak to quantify, mostly under pKd 3.1 to 4
- condition details: plain residues with an end cap or a label only (N-terminal biotin on a linker: ahx)
endpoint label: pKd

Example entries and their recorded answers appear below.
- binder: "APSRKLNTEI [TIAM1, Q13009]"
  reported measurement: "below the threshold"
- binder: "TEAKLTETNA [MYO18A, Q92614]"
  reported measurement: "below the threshold"
- binder: "TESNLQTSSC [CGN, Q9P2M7]"
  reported measurement: "below the threshold"
- binder: "QNTDDVQTSF [ACE2, Q9BYF1]"
  reported measurement: 5.13

query: Would you kindly share the measured pKd for EKQAKGDTEF [CACYBP, Q9HB71] ?
result: below the threshold

Values compiled from paper PMC9482650.
